# Test system: pPKB S473
# Procedure Details: In-cell Western blot, pPKB S473
# Type: cell-based
# Protocol Conditions: Homo sapiens; A2058 cells, treated 1 h, normalized to α-Tubulin
pIC50: −log10 of the molar value.
Threshold rule: pIC50 greater than or equal to 6 is class 1; below that, class 0.

Structure Smiles: Nc1cc(C(F)(F)F)c(-c2nc(N3CCOCC3)nc3c2C[C@@H]2COCCN32)cn1
Label: class 0
//
Structure Smiles: Nc1ncc(-c2nc(N3CCOCC3)nc3c2C[C@@H]2COCCN32)cn1
Label: class 1
//
Structure Smiles: Nc1cc(C(F)(F)F)c(-c2nc(N3CCOCC3)c3c(n2)N2CCOC[C@H]2C3)cn1
Label: class 1
//
Structure Smiles: Nc1ncc(-c2nc(N3CCOCC3)c3c(n2)N2CCOC[C@@H]2C3)cn1
Label: class 1
//
Structure Smiles: Nc1ncc(-c2nc(N3CCOCC3)c3c(n2)N2CCOC[C@H]2C3)cn1
Label: class 1
//
Structure Smiles: Nc1cc(C(F)(F)F)c(-c2nc(N3CCOCC3)c3c(n2)N2CCOC[C@@H]2C3)cn1
Label: class 1

---

Dear all, this message contains pIC50 results, target or system PI3K alpha (p110α) (Homo sapiens, UniProt P42336).
pIC50: −log10 of the molar value.
Property Measured: pIC50

Structure Smiles: Nc1ncc(-c2nc(N3CCOCC3)nc3c2C[C@H]2COCCN32)cn1
Assayed Target: PI3K alpha (p110α) (Homo sapiens, UniProt P42336)
Sequence (P42336 whole entry): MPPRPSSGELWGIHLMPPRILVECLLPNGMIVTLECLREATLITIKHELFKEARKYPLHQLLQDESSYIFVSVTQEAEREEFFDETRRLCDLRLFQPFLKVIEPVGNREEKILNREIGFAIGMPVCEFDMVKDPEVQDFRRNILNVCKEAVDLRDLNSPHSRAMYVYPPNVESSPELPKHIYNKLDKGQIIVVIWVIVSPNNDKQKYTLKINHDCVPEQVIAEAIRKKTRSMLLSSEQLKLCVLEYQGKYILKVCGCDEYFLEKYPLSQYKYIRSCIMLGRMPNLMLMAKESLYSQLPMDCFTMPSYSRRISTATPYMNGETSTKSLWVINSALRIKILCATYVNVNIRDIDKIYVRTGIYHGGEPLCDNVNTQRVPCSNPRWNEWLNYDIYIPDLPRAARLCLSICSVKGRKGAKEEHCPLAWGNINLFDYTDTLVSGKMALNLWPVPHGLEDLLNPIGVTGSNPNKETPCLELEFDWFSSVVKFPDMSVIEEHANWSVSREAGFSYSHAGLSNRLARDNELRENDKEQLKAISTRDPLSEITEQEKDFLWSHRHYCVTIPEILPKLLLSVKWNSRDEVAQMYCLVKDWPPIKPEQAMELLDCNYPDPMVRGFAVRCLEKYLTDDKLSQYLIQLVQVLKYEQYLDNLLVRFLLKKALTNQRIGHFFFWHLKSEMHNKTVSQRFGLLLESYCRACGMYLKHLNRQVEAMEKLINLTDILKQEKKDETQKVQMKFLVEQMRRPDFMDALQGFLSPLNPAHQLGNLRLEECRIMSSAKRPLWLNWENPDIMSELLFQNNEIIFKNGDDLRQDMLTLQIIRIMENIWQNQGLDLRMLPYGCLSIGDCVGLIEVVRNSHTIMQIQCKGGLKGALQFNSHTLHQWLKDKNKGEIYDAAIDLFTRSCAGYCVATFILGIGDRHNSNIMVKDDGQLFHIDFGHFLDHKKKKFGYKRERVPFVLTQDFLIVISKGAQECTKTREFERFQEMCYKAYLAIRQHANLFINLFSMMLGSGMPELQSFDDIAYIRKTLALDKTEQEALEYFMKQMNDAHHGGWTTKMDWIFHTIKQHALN
Sequence (P27986 whole entry partner): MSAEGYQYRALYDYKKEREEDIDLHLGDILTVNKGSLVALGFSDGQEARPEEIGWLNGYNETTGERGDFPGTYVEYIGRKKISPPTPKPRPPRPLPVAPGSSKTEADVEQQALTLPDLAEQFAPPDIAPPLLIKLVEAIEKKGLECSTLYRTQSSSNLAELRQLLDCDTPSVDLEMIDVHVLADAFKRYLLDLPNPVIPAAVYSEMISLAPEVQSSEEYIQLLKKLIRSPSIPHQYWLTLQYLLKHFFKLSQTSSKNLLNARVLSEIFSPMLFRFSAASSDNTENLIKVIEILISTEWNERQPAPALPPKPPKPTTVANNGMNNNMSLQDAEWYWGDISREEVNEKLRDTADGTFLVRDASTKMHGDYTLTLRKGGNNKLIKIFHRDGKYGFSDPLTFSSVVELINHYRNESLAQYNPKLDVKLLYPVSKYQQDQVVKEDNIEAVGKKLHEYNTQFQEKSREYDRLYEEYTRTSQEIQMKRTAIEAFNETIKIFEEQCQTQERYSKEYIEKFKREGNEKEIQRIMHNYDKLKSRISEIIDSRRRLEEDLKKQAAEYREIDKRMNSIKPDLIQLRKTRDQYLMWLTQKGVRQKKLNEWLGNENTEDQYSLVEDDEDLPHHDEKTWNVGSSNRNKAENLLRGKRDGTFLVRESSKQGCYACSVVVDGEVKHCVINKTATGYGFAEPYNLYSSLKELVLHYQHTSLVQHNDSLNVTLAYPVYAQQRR
Property Measured: pIC50
Numeric Readout: 5.79

Structure Smiles: Nc1cc(C(F)(F)F)c(-c2nc(N3CCOCC3)c3c(n2)N2CCOC[C@@H]2C3)cn1
Assayed Target: PI3K alpha (p110α) (Homo sapiens, UniProt P42336)
Property Measured: pIC50
Numeric Readout: 7.01

Structure Smiles: Nc1ncc(-c2nc(N3CCOCC3)c3c(n2)N2CCOC[C@@H]2C3)cn1
Assayed Target: PI3K alpha (p110α) (Homo sapiens, UniProt P42336)
Property Measured: pIC50
Numeric Readout: 7.12

Structure Smiles: Nc1cc(C(F)(F)F)c(-c2nc(N3CCOCC3)c3c(n2)N2CCOC[C@H]2C3)cn1
Assayed Target: PI3K alpha (p110α) (Homo sapiens, UniProt P42336)
Property Measured: pIC50
Numeric Readout: 6.41

Structure Smiles: Nc1ncc(-c2nc(N3CCOCC3)c3c(n2)N2CCOC[C@H]2C3)cn1
Assayed Target: PI3K alpha (p110α) (Homo sapiens, UniProt P42336)
Property Measured: pIC50
Numeric Readout: 6.39

Structure Smiles: Nc1cc(C(F)(F)F)c(-c2nc(N3CCOCC3)nc3c2C[C@H]2COCCN32)cn1
Assayed Target: PI3K alpha (p110α) (Homo sapiens, UniProt P42336)
Property Measured: pIC50
Numeric Readout: 6.42

Structure Smiles: Nc1cc(C(F)(F)F)c(-c2nc(N3CCOCC3)nc3c2C[C@@H]2COCCN32)cn1
Assayed Target: PI3K alpha (p110α) (Homo sapiens, UniProt P42336)
Property Measured: pIC50
Numeric Readout: 5.58
